- assay method text: Inhibition of beta-lactamase VIM4 (unknown origin) expressed in Escherichia coli BL21(DE3) using imipenem as substrate by measuring substrate hydrolysis at 100 uM by spectrophotometric analysis
Activity calls are given as the source filed them. No cut-off for these calls is given here.
reported property: inhibition

The cases that follow already have their inhibition on record.
>  <query smiles>
S=c1[nH]nc(-c2cc3ccccc3[nH]2)n1/N=C/c1ccc(OCc2ccccc2)cc1

>  <inhibition>
inactive

$$$$
>  <query smiles>
Cc1ccccc1-c1n[nH]c(=S)n1/N=C/c1cnc[nH]1

>  <inhibition>
inactive

$$$$
>  <query smiles>
Oc1ccc(/C=N/n2c(Cc3ccccc3)n[nH]c2=S)c(O)c1

>  <inhibition>
47%

$$$$
>  <query smiles>
Oc1ccc(/C=N/n2c(-c3ccc4ccccc4c3)n[nH]c2=S)c(O)c1

>  <inhibition>
55%

$$$$
>  <query smiles>
O=C(O)c1ccccc1/C=N/n1c(CCc2ccccc2)n[nH]c1=S

>  <inhibition>
56%

$$$$

Data request: Annotate the compound Oc1ccc(/C=N/n2c(CCc3ccccc3)n[nH]c2=S)c(O)c1 with its measured inhibition.
Data returned: 54%

Data request: Annotate the compound O=C(O)c1ccccc1/C=N/n1c(-c2cccc3ccccc23)n[nH]c1=S with its measured inhibition.
Data returned: 53%

Data request: Annotate the compound S=c1[nH]nc(-c2ccc(Cl)cc2)n1/N=C/c1ccc(OCc2ccccc2)cc1 with its measured inhibition.
Data returned: inactive

Data request: Annotate the compound Oc1ccc(/C=N/n2c(COc3ccc4ccccc4c3)n[nH]c2=S)c(O)c1 with its measured inhibition.
Data returned: 60%

Data request: Annotate the compound S=c1[nH]nc(-c2cccc(Br)c2)n1/N=C/c1ccc(OCc2ccccc2)cc1 with its measured inhibition.
Data returned: inactive

----------
- assay method text: Inhibition of beta-lactamase IMP-1 (unknown origin) expressed in Escherichia coli BL21(DE3) using imipenem as substrate by measuring substrate hydrolysis at 100 uM by spectrophotometric analysis
Activity calls are given as the source filed them. The calls are words filed in the database; no cut-off is given here.
reported property: inhibition

>  <query smiles>
S=c1[nH]nc(-c2cccc(Br)c2)n1/N=C/c1ccc(OCc2ccccc2)cc1

>  <recorded value>
inactive

$$$$
>  <query smiles>
O=C(O)c1ccccc1/C=N/n1c(-c2cccc(Br)c2)n[nH]c1=S

>  <recorded value>
inactive

$$$$
>  <query smiles>
S=c1[nH]nc(-c2ccccc2-c2ccccc2)n1/N=C/c1ccc(OCc2ccccc2)cc1

>  <recorded value>
inactive

$$$$
>  <query smiles>
Cc1ccccc1-c1n[nH]c(=S)n1/N=C/c1cc(O)ccc1[N+](=O)[O-]

>  <recorded value>
47%

$$$$

Data request: Annotate the compound Oc1ccc(/C=N/n2c(-c3cccc(F)c3)n[nH]c2=S)c(O)c1 with its measured inhibition.
Data returned: inactive

Data request: Annotate the compound O=C(O)c1ccccc1/C=N/n1c(-c2ccccc2O)n[nH]c1=S with its measured inhibition.
Data returned: inactive

Data request: Annotate the compound Oc1ccc(/C=N/n2c(Cc3ccccc3)n[nH]c2=S)c(O)c1 with its measured inhibition.
Data returned: 37%

Data request: Annotate the compound O=C(O)c1ccccc1/C=N/n1c(-c2ccc(OCc3ccccc3)cc2)n[nH]c1=S with its measured inhibition.
Data returned: 62%

Data request: Annotate the compound Cc1ccccc1-c1n[nH]c(=S)n1/N=C/c1cccc(O)c1O with its measured inhibition.
Data returned: 63%

Data request: Annotate the compound O=C(O)c1ccccc1/C=N/n1c(CC(c2ccccc2)c2ccccc2)n[nH]c1=S with its measured inhibition.
Data returned: inactive

----------
- assay method text: Inhibition of beta-lactamase VIM4 (unknown origin) expressed in Escherichia coli BL21(DE3) using imipenem as substrate by measuring substrate hydrolysis at 100 uM by spectrophotometric analysis
reported property: inhibition

Data request: Annotate the molecule Oc1ccc(/C=N/n2c(-c3cc4ccccc4[nH]3)n[nH]c2=S)c(O)c1 with its measured inhibition.
Data returned: 55%

Data request: Annotate the molecule O=C(O)c1ccccc1/C=N/n1c(-c2ccncc2)n[nH]c1=S with its measured inhibition.
Data returned: 73%

Data request: Annotate the molecule Cc1ccccc1-c1n[nH]c(=S)n1/N=C/c1cccc(O)c1O with its measured inhibition.
Data returned: 65%

Data request: Annotate the molecule Oc1ccc(/C=N/n2c(-c3ccc(Cl)cc3)n[nH]c2=S)c(O)c1 with its measured inhibition.
Data returned: 63%

----------
Consider the following molecules; for each one, report its deltaH.
- assay method text: Binding affinity to beta-lactamase VIM-2 expressed in Escherichia coli BL21(DE3) assessed as change in enthalpy at 25 degC by isothermal titration calorimetry
Write the number in kcal/mol without appending the unit.

Data request: Annotate the molecule O=C(O)c1ccccc1/C=N/n1c(-c2ccccc2)n[nH]c1=S with its measured deltaH.
Data returned: -3.6

Data request: Annotate the molecule Cc1ccccc1-c1n[nH]c(=S)n1/N=C/c1ccc(O)c(C(=O)O)c1 with its measured deltaH.
Data returned: -9.1

Data request: Annotate the molecule O=C(O)c1ccccc1/C=N/n1c(-c2cccc(-c3ccccc3)c2)n[nH]c1=S with its measured deltaH.
Data returned: -7.2

----------
- assay method text: Inhibition of beta-lactamase CphA (unknown origin) expressed in Escherichia coli BL21(DE3) using imipenem as substrate by measuring substrate hydrolysis at 100 uM by spectrophotometric analysis
Calls of active or inactive are those of the source. No cut-off for these calls is given here.
reported property: inhibition

The cases that follow already have their inhibition on record.
>  <query smiles>
Cc1ccccc1-c1n[nH]c(=S)n1/N=C/c1ccc(O)c(C(=O)O)c1

>  <recorded value>
39%

$$$$
>  <query smiles>
Cc1ccccc1-c1n[nH]c(=S)n1/N=C/c1ccccc1O

>  <recorded value>
inactive

$$$$
>  <query smiles>
Cc1ccccc1-c1n[nH]c(=S)n1/N=C/c1ccc(O)cc1

>  <recorded value>
35%

$$$$
>  <query smiles>
O=C(O)c1ccccc1/C=N/n1c(-c2ccc3ccccc3c2)n[nH]c1=S

>  <recorded value>
inactive

$$$$
>  <query smiles>
Cc1ccccc1-c1n[nH]c(=S)n1/N=C/c1cc(O)ccc1O

>  <recorded value>
54%

$$$$

Data request: Annotate the compound Cc1ccccc1-c1n[nH]c(=S)n1/N=C/c1cccc(O)c1O with its measured inhibition.
Data returned: 68%

----------
- system under test: Hydroxyacylglutathione hydrolase (Homo sapiens)
- assay method text: Inhibition of human Glyoxalase II expressed in Escherichia coli BL21 (DE3)
Mark 1.0 only for IC50 values smaller than 20 µM; exact matches and larger values are 0.0.

Data request: Take the compound O=C(O)c1ccccc1/C=N/n1c(Cc2ccc3ccccc3c2)n[nH]c1=S and say whether its IC50 is less than 20 µM.
Data returned: 0.0

Data request: Take the compound Cc1ccccc1-c1n[nH]c(=S)n1/N=C/c1ccc(OCc2ccccc2)cc1 and say whether its IC50 is less than 20 µM.
Data returned: 1.0

Data request: Take the compound Cc1ccccc1-c1n[nH]c(=S)n1/N=C/c1ccc(O)cc1O and say whether its IC50 is less than 20 µM.
Data returned: 1.0

Data request: Take the compound O=C(O)c1ccccc1/C=N/n1c(-c2ccc3ccccc3c2)n[nH]c1=S and say whether its IC50 is less than 20 µM.
Data returned: 1.0

Data request: Take the compound O=C(O)c1ccccc1/C=N/n1c(-c2ccccc2)n[nH]c1=S and say whether its IC50 is less than 20 µM.
Data returned: 0.0

Data request: Take the compound Cc1ccccc1-c1n[nH]c(=S)n1/N=C/c1ccccc1C(=O)O and say whether its IC50 is less than 20 µM.
Data returned: 0.0

Data request: Take the compound S=c1[nH]nc(-c2cccc(-c3ccccc3)c2)n1/N=C/c1ccc(OCc2ccccc2)cc1 and say whether its IC50 is less than 20 µM.
Data returned: 0.0

----------
- assay method text: Binding affinity to beta-lactamase VIM-2 expressed in Escherichia coli BL21(DE3) assessed as dissociation constant at 25 degC by isothermal titration calorimetry
reported property: Kd (nM)
Write the number in nM without appending the unit.

Data request: Annotate the molecule O=C(O)c1ccccc1/C=N/n1c(-c2cccc(-c3ccccc3)c2)n[nH]c1=S with its measured Kd.
Data returned: 68

Data request: Annotate the molecule Oc1ccc(/C=N/n2c(-c3cccc(Br)c3)n[nH]c2=S)c(O)c1 with its measured Kd.
Data returned: 323

Data request: Annotate the molecule O=C(O)c1ccccc1/C=N/n1c(-c2ccc3ccccc3c2)n[nH]c1=S with its measured Kd.
Data returned: 713

Data request: Annotate the molecule O=C(O)c1ccccc1/C=N/n1c(-c2cc(Cl)cc(Cl)c2)n[nH]c1=S with its measured Kd.
Data returned: 863

Data request: Annotate the molecule Cc1ccccc1-c1n[nH]c(=S)n1/N=C/c1ccc(O)c(C(=O)O)c1 with its measured Kd.
Data returned: 1300

Data request: Annotate the molecule COc1ccc(O)c(-c2n[nH]c(=S)n2/N=C/c2ccccc2C(=O)O)c1 with its measured Kd.
Data returned: 389

Data request: Annotate the molecule O=C(O)c1ccccc1/C=N/n1c(-c2ccccc2)n[nH]c1=S with its measured Kd.
Data returned: 519

Data request: Annotate the molecule Oc1ccc(/C=N/n2c(-c3ccccc3O)n[nH]c2=S)c(O)c1 with its measured Kd.
Data returned: 2980

----------
- System: Escherichia coli
- assay method text: Synergistic antibacterial activity against NDM-1 producing Escherichia coli assessed as MIC of meropenem at 32 ug/ml by broth microdilution method
- Type: functional
- condition set: dose 32 µg/ml
reported property: MIC
Express the reported value numerically, then name its unit.

Data request: Write down measured MIC (Escherichia coli) for this molecule. O=C(O)c1ccccc1/C=N/n1c(Cc2ccc3ccccc3c2)n[nH]c1=S
Data returned: 64 µg/mL

Data request: Write down measured MIC (Escherichia coli) for this molecule. S=c1[nH]nc(-c2cccc(-c3ccccc3)c2)n1/N=C/c1ccc(OCc2ccccc2)cc1
Data returned: 64 µg/mL

Data request: Write down measured MIC (Escherichia coli) for this molecule. Oc1ccc(/C=N/n2c(-c3ccc(-c4ccccc4)cc3)n[nH]c2=S)c(O)c1
Data returned: 16 µg/mL

Data request: Write down measured MIC (Escherichia coli) for this molecule. O=C(O)c1ccccc1/C=N/n1c(-c2ccc(-c3ccccc3)cc2)n[nH]c1=S
Data returned: 32 µg/mL
